Parameter inhibition at 25 µM: see the listing below.
System: S. aureus ATCC 12598
Assay: Antibacterial activity, pre-exposure
Type: cell-based, Staphylococcus aureus
Details: Staphylococcus aureus, ATCC12598; S. aureus ATCC 12598, pre-exposure, 25 µM, ± SD; read-out: Average inhibition %, planktonic cells turbidity
Number in %, nothing else.

Problem: Requested field: inhibition at 25 µM. Item: CCCCCCCCCCc1ccc2nc(CCC(N)(CO)CO)ccc2c1 [Compound 81]
Solution: 99.3

Problem: Requested field: inhibition at 25 µM. Item: CCCCCCCCc1ccc2nc(CCC(N)(CO)CO)ccc2c1 [Compound 80]
Solution: 98.9

Problem: Requested field: inhibition at 25 µM. Item: CCCCCCCCc1ccc2ccc(CC(N)(CO)CO)nc2c1 [Compound 82]
Solution: 99.4

Next:
Problem: Requested field: inhibition at 25 µM. Item: CCCCCCCCc1ccc(CCC(N)(CO)CO)cc1 [fingolimod, Fingolimod]
Solution: 99.2

Problem: Requested field: inhibition at 25 µM. Item: CCCCCCCCCCc1ccc(C(O)CC(N)(CO)CO)cc1 (stereo not drawn) [Compound 55]
Solution: 98.9

Problem: Requested field: inhibition at 25 µM. Item: CCCCCCCCc1ccc2cc(CC(N)(CO)CO)ccc2c1 [Compound 79]
Solution: 99.2

====

Test system: A. baumannii NCTC 13423
Assay: Antibacterial activity, pre-exposure
Format: cell-based, Acinetobacter baumannii
Settings: Acinetobacter baumannii, NCTC13423; A. baumannii NCTC 13423, pre-exposure, 10 µM, ± SD; read-out: Average inhibition %, biofilms biomass
Label satisfied when inhibition at 10 µM >= 2%; otherwise not satisfied.

Example entries begin here.
Problem: Does the reported inhibition at 10 µM for CCCCCCCCc1cccc(CCC(N)(CO)CO)c1 [Compound 43] fall at or above the 2% mark?
Solution: not satisfied

Problem: Does the reported inhibition at 10 µM for CCCCCCCCc1ccc2ccc(CC(N)(CO)CO)nc2c1 [Compound 82] fall at or above the 2% mark?
Solution: satisfied

Problem: Does the reported inhibition at 10 µM for CCCCCCCCc1ccc(CC(N)(CO)CO)cc1 [Compound 44] fall at or above the 2% mark?
Solution: not satisfied

Problem: Does the reported inhibition at 10 µM for CCCCCCCCc1ccc(CCC(N)(CO)CO)cc1 [fingolimod, Fingolimod] fall at or above the 2% mark?
Solution: not satisfied

Problem: Does the reported inhibition at 10 µM for CCCCCc1ccc(-c2ccc(CCC(N)(CO)CO)cc2)cc1 [Compound 15] fall at or above the 2% mark?
Solution: not satisfied

Problem: Does the reported inhibition at 10 µM for CCCCCCCCCCOc1ccc(CCC(N)(CO)CO)cc1 [Compound 49] fall at or above the 2% mark?
Solution: not satisfied

Problem: Does the reported inhibition at 10 µM for CCCCCCCCc1ccc(C(O)CC(N)(CO)CO)cc1 (stereo not shown) [Compound 54] fall at or above the 2% mark?
Solution: satisfied

Problem: Does the reported inhibition at 10 µM for CCCCCCCCCCc1ccc2nc(CC(N)(CO)CO)ccc2c1 [Compound 83] fall at or above the 2% mark?
Solution: satisfied

Next:
Problem: Does the reported inhibition at 10 µM for CCCCCCCCCCc1ccc(C(O)CC(N)(CO)CO)cc1 (stereo not shown) [Compound 55] fall at or above the 2% mark?
Solution: not satisfied

Problem: Does the reported inhibition at 10 µM for CCCCCCCCCCc1ccc(CCC(N)(CO)CO)nc1 [Compound 62] fall at or above the 2% mark?
Solution: satisfied

====

System: S. aureus ATCC 25923
Assay: Antibacterial activity, post-exposure on preformed 18-h-old biofilms
Format: cell-based, Staphylococcus aureus
Conditions: Staphylococcus aureus, ATCC25923, 25 µM, ± SD, read-out: Average inhibition %, planktonic cells turbidity
observed-property: inhibition at 25 µM (%)
Number in %, nothing else.

Problem: Fill in the recorded inhibition at 25 µM for this compound, with S. aureus ATCC 25923 as test system: CCCCCCCCCCc1ccc(C(O)CC(N)(CO)CO)cc1 (stereo not drawn)
Solution: 15.7

Next:
Problem: Fill in the recorded inhibition at 25 µM for this compound, with S. aureus ATCC 25923 as test system: CCCCCCCCCCc1ccc(CCC(N)(CO)CO)nc1
Solution: 15.7

Problem: Fill in the recorded inhibition at 25 µM for this compound, with S. aureus ATCC 25923 as test system: CCCCCCCCCCOc1ccc(CCC(N)(CO)CO)cc1
Solution: 1

Problem: Fill in the recorded inhibition at 25 µM for this compound, with S. aureus ATCC 25923 as test system: CCCCCCCCc1ccc(C(O)CC(N)(CO)CO)cc1 (stereo not drawn)
Solution: 5.1

Problem: Fill in the recorded inhibition at 25 µM for this compound, with S. aureus ATCC 25923 as test system: CCCCCCCCc1ccc2ccc(CC(N)(CO)CO)nc2c1
Solution: 14.1

Problem: Fill in the recorded inhibition at 25 µM for this compound, with S. aureus ATCC 25923 as test system: CCCCCCCCOc1ccc(CCC(N)(CO)CO)cc1
Solution: 9.3

====

Parameter inhibition at 50 µM: see the listing below.
Tested on: A. baumannii NCTC 13423
Assay: Antibacterial activity, pre-exposure
Format: cell-based, Acinetobacter baumannii
Settings: Acinetobacter baumannii, NCTC13423; A. baumannii NCTC 13423, pre-exposure, 50 µM, ± SD; read-out: Average inhibition %, planktonic cells turbidity
Number in %, nothing else.

Take a look at these entries with their results.
Problem: Requested field: inhibition at 50 µM. Item: CCCCCCCCc1ccc(CC(N)(CO)CO)cc1 [Compound 44]
Solution: 98.3

Problem: Requested field: inhibition at 50 µM. Item: CCCCCCCCOc1ccc(CCC(N)(CO)CO)cc1 [Compound 48]
Solution: 94.4

Problem: Requested field: inhibition at 50 µM. Item: CCCCCCCCCCc1ccc(C(O)CC(N)(CO)CO)cc1 (stereo not drawn) [Compound 55]
Solution: 99.1

Next:
Problem: Requested field: inhibition at 50 µM. Item: CCCCCCCCc1cccc(CCC(N)(CO)CO)c1 [Compound 43]
Solution: 98.3

Problem: Requested field: inhibition at 50 µM. Item: CCCCCCCCc1ccc2cc(CC(N)(CO)CO)ccc2c1 [Compound 79]
Solution: 0.3

Problem: Requested field: inhibition at 50 µM. Item: CCCCCC/C=C/c1ccc(CCC(N)(CO)CO)cc1 [Compound 42]
Solution: 83.1

====

Tested on: P. aeruginosa ATCC 9027
Experiment: Antibacterial activity, pre-exposure
Type: cell-based, Pseudomonas aeruginosa
Settings: Pseudomonas aeruginosa, ATCC9027; P. aeruginosa ATCC 9027, pre-exposure, 200 µM, ± SD; read-out: Average inhibition %, planktonic cells turbidity
observed-property: inhibition at 200 µM

Take a look at these entries with their results.
Problem: Requested field: inhibition at 200 µM. Item: CCCCCCCCCCOc1ccc(CCC(N)(CO)CO)cc1
Solution: 16.7%

Problem: Requested field: inhibition at 200 µM. Item: CCCCCc1ccc(-c2ccc(CCC(N)(CO)CO)cc2)cc1
Solution: 13.7%

Problem: Requested field: inhibition at 200 µM. Item: CCCCCCCCc1ccc2nc(CCC(N)(CO)CO)ccc2c1
Solution: 55.3%

Problem: Requested field: inhibition at 200 µM. Item: CCCCCCCCc1ccc2ccc(CC(N)(CO)CO)nc2c1
Solution: 75.7%

Problem: Requested field: inhibition at 200 µM. Item: CCCCCCCCOc1ccc(CCC(N)(CO)CO)cc1
Solution: 87.8%

Problem: Requested field: inhibition at 200 µM. Item: CCCCCCCCCCc1ccc2nc(CCC(N)(CO)CO)ccc2c1
Solution: 30.5%

Problem: Requested field: inhibition at 200 µM. Item: CCCCCCCCc1ccc(CC(N)(CO)CO)cc1
Solution: 88.5%

Problem: Requested field: inhibition at 200 µM. Item: CCCCCCCCc1cccc(CCC(N)(CO)CO)c1
Solution: 97.5%

Problem: Requested field: inhibition at 200 µM. Item: CCCCCCCCc1ccc2cc(CC(N)(CO)CO)ccc2c1
Solution: 25%

Problem: Requested field: inhibition at 200 µM. Item: CCCCCC/C=C/c1ccc(CCC(N)(CO)CO)cc1
Solution: 53.5%

Next:
Problem: Requested field: inhibition at 200 µM. Item: CCCCCCCCCCc1ccc2nc(CC(N)(CO)CO)ccc2c1
Solution: 33.2%

====

Tested on: P. aeruginosa ATCC 9027
Assay: Antibacterial activity, pre-exposure
Type: cell-based, Pseudomonas aeruginosa
Settings: P. aeruginosa ATCC 9027, pre-exposure, 50 µM, ± SD
Parameter Average inhibition %, planktonic cells viability: see the listing below.
Show the value, then the unit it is measured in.

Problem: Requested field: Average inhibition %, planktonic cells viability. Item: CCCCCCCCCCc1ccc(CCC(N)(CO)CO)cc1
Solution: 26.2 ± 4.1%

Problem: Requested field: Average inhibition %, planktonic cells viability. Item: CCCCCCCCCCc1ccc2nc(CC(N)(CO)CO)ccc2c1
Solution: 10.5 ± 6.5%

Problem: Requested field: Average inhibition %, planktonic cells viability. Item: CCCCCCCCc1cccc(CCC(N)(CO)CO)c1
Solution: 98.1 ± 0.5%

Problem: Requested field: Average inhibition %, planktonic cells viability. Item: CCCCCCCCCCc1ccc2nc(CCC(N)(CO)CO)ccc2c1
Solution: 10.9 ± 9.5%

Problem: Requested field: Average inhibition %, planktonic cells viability. Item: CCCCCCCCCCc1ccc(CCC(N)(CO)CO)nc1
Solution: 18.7 ± 18.1%

Next:
Problem: Requested field: Average inhibition %, planktonic cells viability. Item: CCCCCCCCc1ccc(CCC(N)(CO)CO)cc1
Solution: 43.9 ± 35.5%
